Test system: E21 (patient-derived glioblastoma stem cells of mesenchymal subtype);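 further: nuclei counted by high-content imaging of Hoechst-stained cells in laminin-coated 384-well plates, relative to 0.1% DMSO vehicle wells, with staurosporine as cell-death control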
Assay: surviving fraction (nuclei count normalised to DMSO); higher = more cells surviving (less toxic)
Conditions: 4.1 nM; exposure time: 72 h
Where a name gives a salt, the structure may show the parent alone.
Quantity measured: surviving fraction
I'd appreciate a reply containing only the number, no unit.

A selection of reference data follows.
# Compound, Quantity measured, Reading
data = [
    ("CC(C)N1CCN(c2ccc(OCC3COC(Cn4cncn4)(c4ccc(Cl)cc4Cl)O3)cc2)CC1 (configuration not stated) [Terconazole]", "surviving fraction", 0.938),
    ("CC1CNc2c(cccc2S(=O)(=O)N[C@@H](CCCNC(=N)N)C(=O)N2CC[C@@H](C)C[C@@H]2C(=O)O)C1 (some centres not stated) [Argatroban]", "surviving fraction", 0.935),
    ("CCn1cc(C(=O)O)c(=O)c2cc(F)c(N3CCNCC3)nc21 [Enoxacin]", "surviving fraction", 0.976),
    ("CCC[C@@H]1C[C@@H](C(=O)N[C@@H]([C@H]2O[C@H](SC)[C@H](O)[C@@H](O)[C@H]2O)[C@@H](C)O)N(C)C1 [Lincomycin hydrochloride]", "surviving fraction", 0.94),
    ("CN(C)CCN(Cc1ccc(Cl)cc1)c1ccccn1 [Chloropyramine hydrochloride]", "surviving fraction", 0.942),
    ("COc1ccc(C(=O)CC(=O)c2ccc(C(C)(C)C)cc2)cc1 [Avobenzone]", "surviving fraction", 1.1),
    ("CC(C)CC(=O)N[C@H](C(=O)N[C@H](C(=O)N[C@@H](CC(C)C)[C@@H](O)CC(=O)N[C@@H](C)C(=O)N[C@@H](CC(C)C)[C@@H](O)CC(=O)O)C(C)C)C(C)C [Pepstatin A]", "surviving fraction", 1.08),
    ("CC(=O)CC(c1ccc([N+](=O)[O-])cc1)c1c(O)c2ccccc2oc1=O (configuration not stated) [Acenocoumarol]", "surviving fraction", 0.926),
]

Field surviving fraction (entry CCOC(=O)OC(C)OC1=C(C(=O)Nc2ccccn2)N(C)S(=O)(=O)c2ccccc21 (configuration not stated) [Ampiroxicam] ) reads 0.957

Field surviving fraction (entry C[C@@H]1C[C@@H]([C@H](O)CC2CC(=O)NC(=O)C2)C(=O)[C@@H](C)C1 [Cycloheximide] ) reads 0.753

Field surviving fraction (entry C[C@H](Cc1cc2c(c(C(N)=O)c1)N(CCCO)CC2)NCCOc1ccccc1OCC(F)(F)F [Silodosin] ) reads 0.872

Field surviving fraction (entry Cc1cc(CN2CCN(c3c(Br)cnc4nc(-c5ccc(N6CCN(C)CC6)cc5)[nH]c34)CC2)no1 ) reads 0.936

Field surviving fraction (entry COc1c(N2CCNC(C)C2)c(F)cc2c(=O)c(C(=O)O)cn(C3CC3)c12 (configuration not stated) [Gatifloxacin] ) reads 0.949

Value source: the supplement of paper PMC13207355
